Target: 20S catalytic subunit of the proteasome (multicatalytic proteinase complex) (Bos taurus, UniProt Q32KL2)
Construct: was purified to homogeneity from bovine brain according to published methods; from tissue; host or cells: bovine brain
Assay: 20S proteasome chymotryptic activity, fluorogenic peptide cleavage
Type: biochemical, bovine
Details: 50 μM succinyl-leu-leu-val-tyr-7-amino-4-methyl coumarin, 15 minutes at 37° C, pH7.5
Can you tell me IC50 for the items I'm about to list?

{"compound": "COc1ccc2c(c1)C(CC(=O)NC(CC(C)C)C(=O)NC(CC(C)C)C(=O)O)CC2=O (mixture of isomers) [Compound 171]", "IC50": "> 10 µg/mL"}
{"compound": "COc1ccc2c(c1)C(CC(=O)N[C@@H](CC(C)C)C(=O)N[C@@H](C(=O)NCC(N)=O)C(C)C)CC2=O (stereo partly drawn) [Compound 90]", "IC50": "> 10 µg/mL"}
{"compound": "COc1ccc2c(c1)C(CC(=O)NCc1ccncc1)CC2=O (stereo not drawn) [Compound 104]", "IC50": "> 10 µg/mL"}
{"compound": "COc1ccc2c(c1)C(CC(=O)NC(CC(C)C)C(=O)NC(CC(C)C)C(=O)NCC1CCCCC1)CC2=O (mixture of isomers) [Compound 188]", "IC50": "> 10 µg/mL"}
{"compound": "COc1ccc2c(c1)C(CC(=O)N1CCCC1C(=O)NC(CC(C)C)C(=O)NCC(N)=O)CC2=O (mixture of isomers) [Compound 49]", "IC50": "> 10 µg/mL"}
{"compound": "COc1ccc2c(c1)C(CC(=O)NCCc1ccccc1)CC2=O (stereo not drawn) [Compound 65]", "IC50": "> 10 µg/mL"}
{"compound": "COc1ccc2c(c1)C(CC(=O)NC(CC(C)C)C(=O)NC(Cc1ccccc1)C(N)=O)CC2=O (mixture of isomers) [Compound 56]", "IC50": "> 10 µg/mL"}
{"compound": "COc1ccc2c(c1)C(CC(=O)N[C@@H](CC(C)C)C(=O)N[C@H](CC(C)C)C(=O)NCC(N)=O)CC2=O (single isomer, unassigned) [Compound 51]", "IC50": "0.5 µg/mL"}
{"compound": "COc1ccc2c(c1)C(CC(=O)NCCCc1ccccc1)CC2=O (racemic) [Compound 161]", "IC50": "> 50 µg/mL"}
{"compound": "COc1ccc2c(c1)C(CC(=O)NC1CCN(Cc3ccccc3)CC1)CC2=O (stereo not drawn) [Compound 110]", "IC50": "> 10 µg/mL"}

Each compound below has a recorded value; state its IC50.
1. COc1ccc2c(c1)C(CC(=O)NC(CC1CCCCC1)C(N)=O)CC2=O (mixture of isomers) [Compound 29]
2. CCCC(NC(=O)CC1CC(=O)c2ccc(OC)cc21)C(=O)NC(CC(C)C)C(N)=O (mixture of isomers) [Compound 57]
3. COc1ccc2c(c1)C(CC(=O)N[C@@H](CC(C)C)C(=O)N[C@H](CC(C)C)C(=O)NCC(N)=O)CC2=O (single isomer, unassigned) [Compound 50]
4. COc1ccc2c(c1)C(CC(=O)Nc1ccc(Cl)c(Cl)c1)CC2=O (racemic) [Compound 157]
5. COc1ccc2c(c1)C(CC(=O)NCC(O)CO)CC2=O (stereo not drawn) [Compound 111]
6. COc1ccc2c(c1)C(CC(=O)NC(Cc1ccc(O)cc1)C(=O)NC(CC(C)C)C(N)=O)CC2=O (mixture of isomers) [Compound 102]
7. COc1ccc2c(c1)C(CC(=O)NC(CC(C)C)C(=O)N1CCCC1C(N)=O)CC2=O (mixture of isomers) [Compound 54]
8. COc1ccc2c(c1)C(CC(=O)Nc1ccccc1)CC2=O (racemic) [Compound 168]

1: > 10 µg/mL; 2: > 10 µg/mL; 3: 0.5 µg/mL; 4: > 10 µg/mL; 5: > 10 µg/mL; 6: > 10 µg/mL; 7: > 10 µg/mL; 8: > 50 µg/mL

Each compound below has a recorded value; state its IC50.
1. COc1ccc2c(c1)C(CC(=O)NCC(=O)NC(CC(C)C)C(=O)NCC(N)=O)CC2=O (mixture of isomers) [Compound 42]
2. COc1ccc2c(c1)C(CC(=O)NC(C(=O)NC(CC(C)C)C(N)=O)c1ccccc1)CC2=O (mixture of isomers) [Compound 37]
3. COc1ccc2c(c1)C(CC(=O)N(C)CCO)CC2=O (stereo not drawn) [Compound 115]

["> 10 µg/mL", "> 10 µg/mL", "> 10 µg/mL"]
